target: YbfA (Escherichia coli); construct: recombinant 6xHis-tagged YbfA (pET28a), ybfA gene cloned from E. coli W3110; test: isothermal titration calorimetry (ITC), […] °C
Sequence (P0AAU2 22-68): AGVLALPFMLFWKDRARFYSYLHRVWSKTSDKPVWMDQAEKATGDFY
experimental_endpoint: Kd (µM)
The response must be a number in µM with no trailing unit.

Please report the recorded Kd for OCCc1ccc(O)cc1 .
4.65
